Please go through the items and note down their GI50.
# MEASUREMENT_DESCRIPTION: Cytotoxicity against human HCT116 cells incubated for 1 to 11 days by MTT assay
# Assay type: cell-based, HCT-116

Q: Tell us which GI50 value is on record for `CCCCCCCCCCc1cc2c(=O)n(CCBr)cnc2s1`
Result: > 100 µg/mL

Q: Tell us which GI50 value is on record for `CCCCCCc1cc2c(=O)n(CC3CC3)cnc2s1`
Result: 17.6 µg/mL

Q: Tell us which GI50 value is on record for `CC(=O)O[C@H]1C(=O)[C@@]2(C)[C@H]([C@H](OC(=O)c3ccccc3)[C@]3(O)C[C@H](OC(=O)[C@H](O)[C@@H](NC(=O)c4ccccc4)c4ccccc4)C(C)=C1C3(C)C)[C@]1(OC(C)=O)CO[C@@H]1C[C@@H]2O`
Result: 0.026 µg/mL

Q: Tell us which GI50 value is on record for `C=CCCCCCCCc1cc2c(=O)n(CCBr)cnc2s1`
Result: 42.4 µg/mL

Q: Tell us which GI50 value is on record for `CCCCCc1cc2c(=O)n(CCC)cnc2s1`
Result: > 100 µg/mL

Q: Tell us which GI50 value is on record for `CCCCCCCc1cc2c(=O)n(CC#N)cnc2s1`
Result: > 100 µg/mL

Q: Tell us which GI50 value is on record for `CO[C@H]1/C=C/O[C@@]2(C)Oc3c(C)c(O)c4c(O)c(c(/C=N/N5CCN(C)CC5)c(O)c4c3C2=O)NC(=O)/C(C)=C\C=C\[C@H](C)[C@H](O)[C@@H](C)[C@@H](O)[C@@H](C)[C@H](OC(C)=O)[C@@H]1C`
Result: > 100 µg/mL

Q: Tell us which GI50 value is on record for `CCCCCCCc1cc2c(=O)n(CCN=[N+]=[N-])cnc2s1`
Result: > 100 µg/mL

Source listed as ChEMBL document CHEMBL3774361.
